details: 308.15 K; 101 kPa; Liquid mixture 1; Drop volume
± gives the expanded uncertainty stated by the source.
Quantity kind: interfacial tension

Solved entries:
COC(C)(C)C [2-methoxy-2-methylpropane] + O :: 10.8 ± 0.1 mN/m
CCCCO [butan-1-ol] + O :: 1.69 ± 0.05 mN/m
CCCCCCO [hexan-1-ol] + O :: 6.16 ± 0.08 mN/m

For the compound CCCCCO [pentan-1-ol] + O , what interfacial tension is on record?
4.5 ± 0.07 mN/m

###

conditions: 288.15 K; 101 kPa; Liquid mixture 1; Drop volume
Values of interfacial tension greater than or equal to 9 mN/m map to Criterion met; values below map to Criterion not met.

Examples from the recorded data:
CCCCCCCO [heptan-1-ol] + O :: Criterion not met
CCCCCCCCO [octan-1-ol] + O :: Criterion not met
CCCCCCO [hexan-1-ol] + O :: Criterion not met
CCCCO [butan-1-ol] + O :: Criterion not met
CCC(C)(C)OC [2-methoxy-2-methylbutane] + O :: Criterion met

Okay, now this compound:
# bool: interfacial tension of CCCCCO [pentan-1-ol] + O >= 9 mN/m
Criterion not met

###

conditions: 338.15 K; 101 kPa; Liquid mixture 1; Drop volume
Quantity kind: interfacial tension (mN/m)
One number for each entry, in mN/m.

Solved entries:
CCCCCO [pentan-1-ol] + O :: 4.37
CCC(C)(C)OC [2-methoxy-2-methylbutane] + O :: 17.5
C1CCOCC1 [tetrahydropyran] + O :: 7.45
CCCCCCO [hexan-1-ol] + O :: 6.14
CCCCCCCCO [octan-1-ol] + O :: 8.81
CCCCO [butan-1-ol] + O :: 1.39

For the compound CCCCCCCO [heptan-1-ol] + O , what interfacial tension is on record?
7.9

###

details: 278.15 K; 101 kPa; Liquid mixture 1; Drop volume
For each of the compounds below, state its interfacial tension.
Give bare numbers, in mN/m.

CCCCCCO [hexan-1-ol] + O :: 5.77
CCCCCCCO [heptan-1-ol] + O :: 6.61
CCOC(C)(C)C [2-ethoxy-2-methylpropane] + O :: 14
CCCCCO [pentan-1-ol] + O :: 3.96
CCCCO [butan-1-ol] + O :: 1.49
CC(C)OC(C)C [diisopropyl ether] + O :: 15.2

Record interfacial tension for all entries; do not skip any.
1. C1CCOCC1 [tetrahydropyran] + O
2. CCC(C)(C)OC [2-methoxy-2-methylbutane] + O
3. CCCCCCCCO [octan-1-ol] + O
4. COC(C)(C)C [2-methoxy-2-methylpropane] + O

[4.64, 12.2, 6.99, 7.8]

###

conditions: 298.15 K; 101.33 kPa; Liquid; Vibrating tube method
Numbers after ± are expanded uncertainties.
For each of the compounds below, state its mass density.
Respond with a number, then the unit of measure.

Solved entries:
CC(C)OC(C)C :: 718.89 ± 0.15 kg/m3
CCOC(C)(C)C :: 736.65 ± 0.14 kg/m3
CCCCCCCCO :: 822.25 ± 0.11 kg/m3

Record mass density for all entries; do not skip any.
1. CCC(C)(C)OC
2. C1CCOCC1 [tetrahydropyran]
3. COC(C)(C)C
4. O
5. CCCCCCCO
6. CCCCCO

1: 765.91 ± 0.14 kg/m3; 2: 879.44 ± 0.09 kg/m3; 3: 735.31 ± 0.14 kg/m3; 4: 996.7 ± 0.04 kg/m3; 5: 818.93 ± 0.11 kg/m3; 6: 810.89 ± 0.12 kg/m3
